- Measured On: HuTCR Vb17 × Va10.2 (SKW3_1) (human)
- Sequence (A0A075B6N1 22-114, chain 1 of 2): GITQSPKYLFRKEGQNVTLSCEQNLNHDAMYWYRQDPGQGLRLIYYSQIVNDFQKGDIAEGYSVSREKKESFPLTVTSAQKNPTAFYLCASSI
- Sequence (A0A087WT01 20-109, chain 2 of 2, further chain): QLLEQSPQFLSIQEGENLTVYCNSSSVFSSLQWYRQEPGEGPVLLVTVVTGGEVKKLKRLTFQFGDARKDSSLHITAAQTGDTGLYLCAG
- Test Name: flow cytometry on SKW3-1 cells

- Binder: "23A9C10 (antibody, V domains shown) VH: EVQLQESGPGLVKPSQSLSLTCSVTGYSITSGYYWNWIRQFLGNKLEWMGYITYDGSNNYNPSLKDRISITRDTSKNQFFLNLNSVTTDDTATYYCARGGGYVPVWGTGTTVTVSS VL: DIQMTQSPAFLSVSPGERVSFSCRASQNIGTSIHWYQQRTNGSPRLLIKYASESISGIPSRFSGSGSGTDFTLSINSVESEDFADYYCHQSHNWPTTFGAGTKLELK"
  MFI (MFI): 7660
